Test system: ATP;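 further: ATP exposure 15 min at 22 °C before imaging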
Test: switch fluorescence ratio, 500 uM ATP over buffer (Cy3 cluster intensity, sum of 5 cycles each) (fold (ratio)); higher = stronger signal-on switching upon ATP binding; sequences stand for … in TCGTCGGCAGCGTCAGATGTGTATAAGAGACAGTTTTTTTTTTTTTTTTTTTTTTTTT…TC
Details: aptamer strand: ATP DNA aptamer (quencher-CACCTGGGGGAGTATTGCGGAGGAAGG + anchor), 100 nM annealed; ATP concentration: 500 uM
value.kind: switch fluorescence ratio
Answer using only a numeral; do not append any unit.

Observe how each entry below is paired with its result.
| sequence.data | tested.on | switch fluorescence ratio |
| --- | --- | --- |
| GAGAAAATGG | ATP | 1 |
| TTAAAGTCGT | ATP | 1.01 |
| CAACATCACG | ATP | 1.52 |
| GCAATATTTC | ATP | 2.31 |

Shifting focus to the sequence that follows.
Query `TGGATTTTTG` yields switch fluorescence ratio of 0.967

---

Test system: ATP;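 further: ATP exposure 15 min at 22 °C before imaging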
Assay: switch fluorescence ratio, 500 uM ATP over buffer (Cy3 cluster intensity, sum of 5 cycles each) (fold (ratio)); higher = stronger signal-on switching upon ATP binding; sequences stand for … in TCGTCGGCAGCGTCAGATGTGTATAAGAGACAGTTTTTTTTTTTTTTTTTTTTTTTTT…TC
Conditions: aptamer strand: ATP DNA aptamer (quencher-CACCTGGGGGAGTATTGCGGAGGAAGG + anchor), 100 nM annealed; ATP concentration: 500 uM
Catalogue of switch fluorescence ratio values
Answer using only a numeral; do not append any unit.

Observe how each entry below is paired with its result.
| sequence.data | tested.on | value.kind | measurement |
| --- | --- | --- | --- |
| TTCATGGTAT | ATP | switch fluorescence ratio | 0.991 |
| CGTCGACCGG | ATP | switch fluorescence ratio | 1 |
| TTGATGGCTA | ATP | switch fluorescence ratio | 0.983 |
| TTAGCTTTTT | ATP | switch fluorescence ratio | 1.01 |
| ACGTGTAGGA | ATP | switch fluorescence ratio | 1 |
| TTTAGGCAT | ATP | switch fluorescence ratio | 0.986 |

Query `GATGTAAGGT` yields switch fluorescence ratio of 1.02

Query `TTGACGTGTC` yields switch fluorescence ratio of 1

Query `CTTATATGAG` yields switch fluorescence ratio of 1

Query `GGTGAAAGCC` yields switch fluorescence ratio of 0.98

Query `TGGAGGGATT` yields switch fluorescence ratio of 1.02

Query `TAATGCTTTT` yields switch fluorescence ratio of 0.978

---

Catalogue of switch fluorescence ratio values
Test system: ATP;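 further: ATP exposure 15 min at 22 °C before imaging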
Assay: switch fluorescence ratio, 500 uM ATP over buffer (Cy3 cluster intensity, sum of 5 cycles each) (fold (ratio)); higher = stronger signal-on switching upon ATP binding; sequences stand for … in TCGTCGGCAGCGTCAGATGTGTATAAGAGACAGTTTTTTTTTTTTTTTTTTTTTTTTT…TC
Conditions: aptamer strand: ATP DNA aptamer (quencher-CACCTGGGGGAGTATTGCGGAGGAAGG + anchor), 100 nM annealed; ATP concentration: 500 uM
Answer using only a numeral; do not append any unit.

Observe how each entry below is paired with its result.
| sequence.data | tested.on | switch fluorescence ratio |
| --- | --- | --- |
| TCCTCAGGTG | ATP | 4.07 |
| TGTAAAGGAA | ATP | 0.992 |
| GGGGGGACTG | ATP | 1.06 |
| TTTAATTTTT | ATP | 0.988 |
| TTTTGCGGGG | ATP | 1.08 |

Query `GATAGGGTTT` yields switch fluorescence ratio of 1.06

Query `TTTACGTTTT` yields switch fluorescence ratio of 1.03

Query `GATAATATGG` yields switch fluorescence ratio of 0.981

Query `TTAGGGAGGG` yields switch fluorescence ratio of 0.998

Query `CTTCAGGGGA` yields switch fluorescence ratio of 1.01

Query `TGGATTAGGC` yields switch fluorescence ratio of 1.01

Query `CAGATTTGTT` yields switch fluorescence ratio of 0.992

Query `GCCTGGTGTC` yields switch fluorescence ratio of 1.27

Query `GATTTCATAG` yields switch fluorescence ratio of 1.02

---

System: ATP;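 further: ATP exposure 15 min at 22 °C before imaging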
Assay: switch fluorescence ratio, 500 uM ATP over buffer (Cy3 cluster intensity, sum of 5 cycles each) (fold (ratio)); higher = stronger signal-on switching upon ATP binding; sequences stand for … in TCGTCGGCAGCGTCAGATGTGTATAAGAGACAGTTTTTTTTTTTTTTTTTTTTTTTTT…TC
Conditions: aptamer strand: ATP DNA aptamer (quencher-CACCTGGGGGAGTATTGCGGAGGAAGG + anchor), 100 nM annealed; ATP concentration: 500 uM
value.kind: switch fluorescence ratio
Answer using only a numeral; do not append any unit.

Observe how each entry below is paired with its result.
| sequence.data | switch fluorescence ratio |
| --- | --- |
| ATTTAACCCG | 1.02 |
| GGAAAAGGTT | 0.995 |
| CATAAAGTAG | 1.02 |

Query `AGTCGCCCTG` yields switch fluorescence ratio of 0.985

Query `ACAAGAGATA` yields switch fluorescence ratio of 1.01

---

Catalogue of switch fluorescence ratio values
System: ATP;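 further: ATP exposure 15 min at 22 °C before imaging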
Experiment: switch fluorescence ratio, 500 uM ATP over buffer (Cy3 cluster intensity, sum of 5 cycles each) (fold (ratio)); higher = stronger signal-on switching upon ATP binding; sequences stand for … in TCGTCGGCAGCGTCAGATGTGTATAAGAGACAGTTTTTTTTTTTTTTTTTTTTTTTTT…TC
Conditions: aptamer strand: ATP DNA aptamer (quencher-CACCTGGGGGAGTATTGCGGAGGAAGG + anchor), 100 nM annealed; ATP concentration: 500 uM
Answer using only a numeral; do not append any unit.

Observe how each entry below is paired with its result.
| sequence.data | switch fluorescence ratio |
| --- | --- |
| GGATGTCTAG | 0.988 |
| GTTGATGGTG | 1 |

Query `GATTTTGTTG` yields switch fluorescence ratio of 0.979

Query `CGTTTGTGGG` yields switch fluorescence ratio of 0.984

Query `CAAAAGTAAC` yields switch fluorescence ratio of 1.07

Query `ATTAGTAGAA` yields switch fluorescence ratio of 0.995

Query `GTTCCGCCGA` yields switch fluorescence ratio of 1.23

Query `TTCAAGTGGG` yields switch fluorescence ratio of 0.985

Query `ATTTACAGAT` yields switch fluorescence ratio of 1.04

Query `TCATCGTCT` yields switch fluorescence ratio of 1.01

Query `TCTTGAACTT` yields switch fluorescence ratio of 1

---

System: ATP;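 further: ATP exposure 15 min at 22 °C before imaging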
Assay: switch fluorescence ratio, 500 uM ATP over buffer (Cy3 cluster intensity, sum of 5 cycles each) (fold (ratio)); higher = stronger signal-on switching upon ATP binding; sequences stand for … in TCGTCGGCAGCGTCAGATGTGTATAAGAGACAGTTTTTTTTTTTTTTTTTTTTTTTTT…TC
Conditions: aptamer strand: ATP DNA aptamer (quencher-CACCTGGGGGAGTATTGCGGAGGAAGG + anchor), 100 nM annealed; ATP concentration: 500 uM
# label = label 1 if switch fluorescence ratio >= 1 else label 0

Please review the entries below; each comes with its answer.
| sequence.data | tested.on | class.label |
| --- | --- | --- |
| AGAGTGGGGT | ATP | label 0 |
| CCGAGGTTTT | ATP | label 1 |
| TTTCAGTTCC | ATP | label 1 |
| TTTAAGTACG | ATP | label 1 |
| GTCACCAACA | ATP | label 1 |

Hello, I need to know if `CGTGGGAGGC` has measured switch fluorescence ratio not below 1. Thanks!
label 1

Hello, I need to know if `ATGCGGCATT` has measured switch fluorescence ratio not below 1. Thanks!
label 1

Hello, I need to know if `ACTTAATTGT` has measured switch fluorescence ratio not below 1. Thanks!
label 1

---

Tested on: ATP;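 further: ATP exposure 15 min at 22 °C before imaging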
Experiment: switch fluorescence ratio, 500 uM ATP over buffer (Cy3 cluster intensity, sum of 5 cycles each) (fold (ratio)); higher = stronger signal-on switching upon ATP binding; sequences stand for … in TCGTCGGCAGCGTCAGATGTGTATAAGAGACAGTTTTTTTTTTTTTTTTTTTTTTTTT…TC
Conditions: aptamer strand: ATP DNA aptamer (quencher-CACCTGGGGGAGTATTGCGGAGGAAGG + anchor), 100 nM annealed; ATP concentration: 500 uM
Catalogue of switch fluorescence ratio values
Answer using only a numeral; do not append any unit.

Observe how each entry below is paired with its result.
| sequence.data | measurement |
| --- | --- |
| TATAATGGCG | 0.961 |
| TTTCGATAGG | 0.979 |
| TGTCGTTTAC | 1.05 |
| TGAAAAGAAG | 1.03 |
| CGTTGTCATC | 1.01 |

The observed switch fluorescence ratio for `TCAAACTTAT` when tested with ATP stands at 1.05

The observed switch fluorescence ratio for `AATTTTTAAC` when tested with ATP stands at 1

The observed switch fluorescence ratio for `TAGGACTCGG` when tested with ATP stands at 0.989

The observed switch fluorescence ratio for `GCCATGTTGA` when tested with ATP stands at 1.02
